// provenance: paper PMC4457826

- ASSAY TARGET: T1, USP7 Ubl123 D762A (human, UniProt Q93009 535-889, D762A)
- T1 construct: USP7, human, residues 535-889 with D762A; Synthesized (Genscript), in pET15b; also called Ubl123 mutant D762A; source: E. coli BL21(DE3)mgk, purified (nickel-NTA, SEC)
- T1 sequence (Q93009 535-889 D762A): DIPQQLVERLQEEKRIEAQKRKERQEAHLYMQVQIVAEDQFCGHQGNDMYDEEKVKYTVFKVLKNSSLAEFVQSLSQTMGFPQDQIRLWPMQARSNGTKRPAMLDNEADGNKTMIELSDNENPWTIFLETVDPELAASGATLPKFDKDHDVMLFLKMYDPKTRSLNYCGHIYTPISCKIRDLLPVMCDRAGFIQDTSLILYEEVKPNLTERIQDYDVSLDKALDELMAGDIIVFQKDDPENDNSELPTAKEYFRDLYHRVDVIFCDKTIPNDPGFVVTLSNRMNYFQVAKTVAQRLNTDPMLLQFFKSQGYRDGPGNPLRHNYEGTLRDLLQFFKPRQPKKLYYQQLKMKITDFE
- MEASUREMENT DESCRIPTION: fluorescence polarisation; USP7 proteins titrated (0 to 200 μM) into 40 nM N-terminally FITC-labeled peptide; 0.01% Triton X-100, 150 mM NaCl, 20 mM Tris pH 7.5
- PROTOCOL CONDITIONS: both partners purified
pKd: −log10 of the molar value. Primed or numbered codes have the meaning given here. No end group written: not given here. FITC′ = fluorescein isothiocyanate label
PARAMETER: pKd

[[record]]
binder = "{FITC′}-GPRKCARKTRH [FITC-labeled ICP0 peptide]"
result = "< 4.00"

